# Test system: replicon cells (1b-Con1)
# EXPERIMENTAL_DETAILS: microbe, parasite or virus in culture
# Assay type: cell-based, HCV
# ASSAY_CONDITIONS: Hepatitis C virus, 72 h; 1b-Con1 replicon cells, three days post-dosing, Taqman RT-PCR with GAPDH RNA as control
Answer each item with its documented EC50.
State the answer as a number, implicitly in nM.

Notebook: CCCCC(=O)O[C@@H]1[C@@H](COP(=O)(N[C@@H](C)C(=O)OC(C)C)Oc2ccccc2)O[C@@H](n2ccc(=O)[nH]c2=O)[C@]1(C)C#N (some centres unmarked) , EC50 read as 700

Query CC(C)OC(=O)[C@H](C)N[P@@](=O)(OC[C@H]1OC(n2ccc(N)nc2=O)[C@](C)(C#N)[C@@H]1OC(=O)C(C)C)Oc1ccccc1 (some centres unmarked) yields EC50 of 425

Documented EC50 of CC(C)OC(=O)[C@H](C)NP(=O)(OC[C@H]1O[C@@H](n2ccc(=O)[nH]c2=O)[C@](C)(C#N)[C@@H]1OC(=O)C1CCC1)Oc1ccccc1 (some centres unmarked) : 700

Sample CC(C)OC(=O)[C@H](C)NP(=O)(OC[C@H]1O[C@@H](n2ccc(NC(=O)C(C)C)nc2=O)[C@](C)(C#N)[C@@H]1OC(=O)C(C)C)Oc1ccccc1 (some centres unmarked) ; EC50 observed: 10000

----------
# Test system: replicon cells (1b-Con1)
# EXPERIMENTAL_DETAILS: microbe, parasite or virus in culture
# Type: cell-based, HCV
# ASSAY_CONDITIONS: Hepatitis C virus, 72 h; 1b-Con1 replicon cells, three days post-dosing, Taqman RT-PCR with GAPDH RNA as control
QUANTITY: EC50 (µM)
Kindly answer with a numeric value in µM, unit omitted.

For CCCCCCCCCCCCCCCCCC(=O)Nc1ccn(C2O[C@H](CO[P@](=O)(N[C@@H](C)C(=O)OC(C)C)Oc3ccccc3)[C@@H](O)[C@@]2(C)C#N)c(=O)n1 (some centres unmarked) the molecule record lists EC50 as 1.8

Looking up CCCCCCCCCCCCCCCCCC(=O)O[C@@H]1[C@@H](CO[P@](=O)(N[C@@H](C)C(=O)OC(C)C)Oc2ccccc2)OC(n2ccc(N)nc2=O)[C@]1(C)C#N (some centres unmarked) , I found its EC50 recorded as 5.09

Per the record, CC(C)OC(=O)[C@H](C)NP(=O)(OC[C@H]1O[C@@H](n2ccc(NC(=O)C(C)C)nc2=O)[C@](C)(N=[N+]=[N-])[C@@H]1OC(=O)C(C)C)Oc1ccccc1 (some centres unmarked) has EC50 of 15

Recorded EC50 (molecule CC(C)OC(=O)[C@H](C)NP(=O)(OC[C@H]1O[C@@H](n2ccc(NC(=O)C(C)C)nc2=O)[C@](C)(N=[N+]=[N-])[C@@H]1O)Oc1ccccc1 (some centres unmarked) ): 8.5

----------
# System: replicon cells (1b-Con1)
# EXPERIMENTAL_DETAILS: microbe, parasite or virus in culture
# Assay type: cell-based, HCV
# ASSAY_CONDITIONS: Hepatitis C virus, 72 h; 1b-Con1 replicon cells, three days post-dosing, Taqman RT-PCR with GAPDH RNA as control
QUANTITY: EC50 (µM)
API: value field is a number in µM; no unit string.

Value sought: EC50, system replicon cells (1b-Con1), item CC(C)OC(=O)[C@H](C)N[P@@](=O)(OC[C@H]1OC(n2ccc(NC(=O)C(C)C)nc2=O)[C@](C)(C#N)[C@@H]1O)Oc1ccccc1 (stereo partly drawn) . Result: 9.5

Measured EC50 (replicon cells (1b-Con1)), entry CC(C)OC(=O)O[C@@H]1[C@@H](COP(=O)(N[C@@H](C)C(=O)OC(C)C)Oc2ccccc2)O[C@@H](n2ccc(=O)[nH]c2=O)[C@]1(C)C#N (stereo partly drawn) : 1

Lab entry: replicon cells (1b-Con1) assay, compound CCCCCCCCCCCCCCCCCC(=O)Nc1ccn([C@@H]2O[C@H](COP(=O)(N[C@@H](C)C(=O)OC(C)C)Oc3ccccc3)[C@@H](O)[C@@]2(C)N=[N+]=[N-])c(=O)n1 (stereo partly drawn) , EC50 = 3.6

Known value: replicon cells (1b-Con1) EC50 of the compound CC(C)OC(=O)[C@H](C)NP(=O)(OC[C@H]1O[C@@H](n2ccc(N)nc2=O)[C@](C)(N=[N+]=[N-])[C@@H]1OC(=O)C(C)C)Oc1ccccc1 (stereo partly drawn) equals 0.6

// EC50 (replicon cells (1b-Con1)) for CC(C)OC(=O)[C@H](C)NP(=O)(OC[C@H]1O[C@@H](n2ccc(=O)[nH]c2=O)[C@](C)(C#N)[C@@H]1OC(=O)C(C)C)Oc1ccccc1 (stereo partly drawn) = 0.7

With replicon cells (1b-Con1) as the test system, CC(C)OC(=O)[C@H](C)NP(=O)(OC[C@H]1O[C@@H](n2ccc(=O)[nH]c2=O)[C@](C)(C#N)[C@@H]1OC(=O)C1CC1)Oc1ccccc1 (stereo partly drawn) showed EC50 of 6.3

----------
# Tested on: replicon cells (1b-Con1)
# EXPERIMENTAL_DETAILS: microbe, parasite or virus in culture
# Type: cell-based, HCV
# ASSAY_CONDITIONS: Hepatitis C virus, 72 h; 1b-Con1 replicon cells, three days post-dosing, Taqman RT-PCR with GAPDH RNA as control
QUANTITY: pEC50
Hey, just a heads up that pEC50 is the negative log base 10 of the concentration in molar.

response.value for CCCC(CCC)C(=O)O[C@@H]1[C@@H](COP(=O)(N[C@@H](C)C(=O)OC(C)C)Oc2ccccc2)O[C@@H](n2ccc(N)nc2=O)[C@]1(C)N=[N+]=[N-] (stereo partly drawn) [Compound 16] (field: pEC50) = 7.00

For CCCC(CCC)C(=O)O[C@@H]1[C@@H](COP(=O)(N[C@@H](C)C(=O)OC(C)C)Oc2ccccc2)O[C@@H](n2ccc(=O)[nH]c2=O)[C@]1(C)C#N (stereo partly drawn) [Compound 29] the molecule record lists pEC50 as 6.72

Entry CCCCCCCCCCCCCCCCCC(=O)O[C@@H]1[C@@H](COP(=O)(N[C@@H](C)C(=O)OC(C)C)Oc2ccccc2)O[C@@H](n2ccc(N)nc2=O)[C@]1(C)N=[N+]=[N-] (stereo partly drawn) [Compound 17] — recorded pEC50 = 5.09

----------
QUANTITY: pKi
Please note pKi is a logarithmic value: minus log10 of concentration in mol/L. Answer with that number alone.

Bench note, UniProtKB P26663: C[C@@]1(N)[C@H](O)[C@@H](COP(=O)(O)OP(=O)(O)OP(=O)(O)O)O[C@H]1n1ccc(=O)[nH]c1=O [Compound 35] , pKi reads 5.33

Lab entry: UniProtKB P26663 assay, compound C[C@@]1(N)[C@H](O)[C@@H](COP(=O)(O)OP(=O)(O)OP(=O)(O)O)O[C@H]1n1ccc(N)nc1=O [Compound 34] , pKi = 7.30

The reported pKi value, UniProtKB P26663, for C#C[C@]1(C)[C@H](O)[C@@H](COP(=O)(O)OP(=O)(O)OP(=O)(O)O)O[C@H]1n1ccc(=O)[nH]c1=O [Compound 36] reads 4.96

----------
# Test system: replicon cells
# ASSAY_CONDITIONS: CC50, MTS assay three days post dosing in replicon cells
Assignment: determine reported Cytotoxicity for the given molecules.

Entry CC(C)OC(=O)O[C@@H]1[C@@H](COP(=O)(N[C@@H](C)C(=O)OC(C)C)Oc2ccccc2)O[C@@H](n2ccc(=O)[nH]c2=O)[C@]1(C)C#N (some centres unmarked) — recorded Cytotoxicity = >100 µM

Memo: CC(C)NC(=O)O[C@@H]1[C@@H](COP(=O)(N[C@@H](C)C(=O)OC(C)C)Oc2ccccc2)O[C@@H](n2ccc(=O)[nH]c2=O)[C@]1(C)C#N (some centres unmarked) , reported Cytotoxicity: >100 µM

Cytotoxicity measured on CC(C)OC(=O)[C@H](C)N[P@@](=O)(OC[C@H]1OC(n2ccc(N)nc2=O)[C@](C)(C#N)[C@@H]1OC(=O)C(C)C)Oc1ccccc1 (some centres unmarked) = >100 µM

Form field Cytotoxicity, entry CC(C)OC(=O)[C@H](C)NP(=O)(OC[C@H]1O[C@@H](n2ccc(NC(=O)C(C)C)nc2=O)[C@](C)(N=[N+]=[N-])[C@@H]1O)Oc1ccccc1 (some centres unmarked) : >100 µM

The recorded Cytotoxicity for entry CC(C)OC(=O)[C@H](C)NP(=O)(OC[C@H]1O[C@@H](n2ccc(N)nc2=O)[C@](C)(N=[N+]=[N-])[C@@H]1OC(=O)C(C)C)Oc1ccccc1 (some centres unmarked) equals >100 µM

Please fill in: Cytotoxicity reported for CC(C)OC(=O)[C@H](C)NP(=O)(OC[C@H]1O[C@@H](n2ccc(=O)[nH]c2=O)[C@](C)(C#N)[C@@H]1OC(=O)C(C)C)Oc1ccccc1 (some centres unmarked) = >100 µM

Looking up CC(C)OC(=O)[C@H](C)NP(=O)(OC[C@H]1O[C@@H](n2ccc(=O)[nH]c2=O)[C@](C)(C#N)[C@@H]1OC(=O)C1CCC1)Oc1ccccc1 (some centres unmarked) , I found its Cytotoxicity recorded as >100 µM

# Cytotoxicity of CCCCCCCCCCCCCCCCCC(=O)Nc1ccn(C2O[C@H](CO[P@](=O)(N[C@@H](C)C(=O)OC(C)C)Oc3ccccc3)[C@@H](OC(=O)CCCCCCCCCCCCCCCCC)[C@@]2(C)C#N)c(=O)n1 (some centres unmarked) = >100 µM

// recorded Cytotoxicity for CC(C)OC(=O)[C@H](C)NP(=O)(OC[C@H]1O[C@@H](n2ccc(NC(=O)C(C)C)nc2=O)[C@](C)(N=[N+]=[N-])[C@@H]1OC(=O)C(C)C)Oc1ccccc1 (some centres unmarked) : >100 µM

The recorded Cytotoxicity for entry CCCCCCCCCCCCCCCCCC(=O)Nc1ccn([C@@H]2O[C@H](COP(=O)(N[C@@H](C)C(=O)OC(C)C)Oc3ccccc3)[C@@H](O)[C@@]2(C)N=[N+]=[N-])c(=O)n1 (some centres unmarked) equals >100 µM

The molecule listed as CC(C)OC(=O)[C@H](C)NP(=O)(OC[C@H]1O[C@@H](n2ccc(=O)[nH]c2=O)[C@](C)(C#N)[C@@H]1OC(=O)C1CC1)Oc1ccccc1 (some centres unmarked) has a reported Cytotoxicity of >100 µM
